Where these numbers come from: patent US11225505B2

- System: Klebsiella pneumoniae Kp BM1
- Assay type: cell-based
- CONDITION_INFO: Kp BM1
- Procedure: MICs of the lipopeptides (trifluoroacetic acid salt, TFA) were determined by broth microdilution in cation-adjusted Mueller-Hinton broth (CAMHB) (Oxoid Australia, Thebarton, SA, Australia) according to the Clinical and Laboratory Standards Institute protocol (Clinical and Laboratory Standards Institute, Performance standards for antimicrobial susceptibility testing; twentyforth informational supplement M100-S24. Wayne, Pa., 2014). Polymyxin B sulphate was employed as the control. […]
Where a SMILES comes first, the peptide text is derived from it. Bridges are numbered along the chain shown (N, C = ends). [ ]: non-standard residue; d: D form. The star is where a group is joined. X35 = O=C(c1cc(-c2ccc(Cl)cc2)on1)*; X47 = O=C(c1cc2cc(Cl)ccc2[nH]1)*; X46 = O=C(c1cc(Br)nc(Br)c1)*; X27 = O=C(c1sc2ccccc2c1Cl)*; X38 = O=C(c1cc2sccc2[nH]1)*; X1 = O=C(c1ncc(Cl)cc1Cl)*; X50 = O=C(c1sc(Br)cc1Br)*; Dab = NCC[C@H](N)C(=O)O; X70 = O=C(c1csc(Br)c1)*; Abu = CC[C@H](N)C(=O)O; Dap = NC[C@H](N)C(=O)O; X31 = O=C(c1ncccc1Cl)*
READOUT: Minimum inhibitory concentration (µg/mL)
# number only, unit µg/mL dropped from output

Recorded Minimum inhibitory concentration for CC[C@@H]1NC(=O)[C@@H](CC(C)C)NC(=O)[C@H](CCN)NC(=O)[C@@H](NC(=O)[C@H](CN)NC(=O)[C@@H](NC(=O)[C@H](CCN)NC(=O)c2cc3cc(Cl)ccc3[nH]2)[C@@H](C)O)CCNC(=O)[C@H]([C@@H](C)O)NC(=O)[C@H](CCN)NC(=O)[C@H](CCN)NC1=O [Compound 59] (X47-[Dab]T[Dap][Dab][Dab][dL][Abu][Dab][Dab]T; lactam 4-C) , please? 0.5

Then this compound: CC[C@@H]1NC(=O)[C@@H](CC(C)C)NC(=O)[C@H](CCN)NC(=O)[C@@H](NC(=O)[C@H](CN)NC(=O)[C@@H](NC(=O)[C@H](CCN)NC(=O)c2cc3sccc3[nH]2)[C@@H](C)O)CCNC(=O)[C@H]([C@@H](C)O)NC(=O)[C@H](CCN)NC(=O)[C@H](CCN)NC1=O [Compound 90] (X38-[Dab]T[Dap][Dab][Dab][dL][Abu][Dab][Dab]T; lactam 4-C) 0.25

Then this compound: CC[C@@H]1NC(=O)[C@@H](CC(C)C)NC(=O)[C@H](CCN)NC(=O)[C@@H](NC(=O)[C@H](CN)NC(=O)[C@@H](NC(=O)[C@H](CCN)NC(=O)c2csc(Br)c2)[C@@H](C)O)CCNC(=O)[C@H]([C@@H](C)O)NC(=O)[C@H](CCN)NC(=O)[C@H](CCN)NC1=O [Compound 101] (X70-[Dab]T[Dap][Dab][Dab][dL][Abu][Dab][Dab]T; lactam 4-C) 0.5

Then this compound: CC[C@@H]1NC(=O)[C@@H](CC(C)C)NC(=O)[C@H](CCN)NC(=O)[C@@H](NC(=O)[C@H](CN)NC(=O)[C@@H](NC(=O)[C@H](CCN)NC(=O)c2sc3ccccc3c2Cl)[C@@H](C)O)CCNC(=O)[C@H]([C@@H](C)O)NC(=O)[C@H](CCN)NC(=O)[C@H](CCN)NC1=O [Compound 61] (X27-[Dab]T[Dap][Dab][Dab][dL][Abu][Dab][Dab]T; lactam 4-C) 0.25

Then this compound: CC[C@@H]1NC(=O)[C@@H](CC(C)C)NC(=O)[C@H](CCN)NC(=O)[C@@H](NC(=O)[C@H](CN)NC(=O)[C@@H](NC(=O)[C@H](CCN)NC(=O)c2cc(-c3ccc(Cl)cc3)on2)[C@@H](C)O)CCNC(=O)[C@H]([C@@H](C)O)NC(=O)[C@H](CCN)NC(=O)[C@H](CCN)NC1=O [Compound 94] (X35-[Dab]T[Dap][Dab][Dab][dL][Abu][Dab][Dab]T; lactam 4-C) 0.5

Then this compound: CC[C@@H]1NC(=O)[C@@H](CC(C)C)NC(=O)[C@H](CCN)NC(=O)[C@@H](NC(=O)[C@H](CN)NC(=O)[C@@H](NC(=O)[C@H](CCN)NC(=O)c2ncccc2Cl)[C@@H](C)O)CCNC(=O)[C@H]([C@@H](C)O)NC(=O)[C@H](CCN)NC(=O)[C@H](CCN)NC1=O [Compound 36] (X31-[Dab]T[Dap][Dab][Dab][dL][Abu][Dab][Dab]T; lactam 4-C) 2

Then this compound: CC[C@@H]1NC(=O)[C@@H](CC(C)C)NC(=O)[C@H](CCN)NC(=O)[C@@H](NC(=O)[C@H](CN)NC(=O)[C@@H](NC(=O)[C@H](CCN)NC(=O)c2sc(Br)cc2Br)[C@@H](C)O)CCNC(=O)[C@H]([C@@H](C)O)NC(=O)[C@H](CCN)NC(=O)[C@H](CCN)NC1=O [Compound 85] (X50-[Dab]T[Dap][Dab][Dab][dL][Abu][Dab][Dab]T; lactam 4-C) 0.25

Then this compound: CC[C@@H]1NC(=O)[C@@H](CC(C)C)NC(=O)[C@H](CCN)NC(=O)[C@@H](NC(=O)[C@H](CN)NC(=O)[C@@H](NC(=O)[C@H](CCN)NC(=O)c2cc(Br)nc(Br)c2)[C@@H](C)O)CCNC(=O)[C@H]([C@@H](C)O)NC(=O)[C@H](CCN)NC(=O)[C@H](CCN)NC1=O [Compound 28] (X46-[Dab]T[Dap][Dab][Dab][dL][Abu][Dab][Dab]T; lactam 4-C) 0.25

Then this compound: CC(C)C[C@H]1NC(=O)[C@H](CCN)NC(=O)[C@@H](NC(=O)[C@H](CN)NC(=O)[C@@H](NC(=O)[C@H](CCN)NC(=O)c2ncc(Cl)cc2Cl)[C@@H](C)O)CCNC(=O)[C@H]([C@@H](C)O)NC(=O)[C@H](CCN)NC(=O)[C@H](CCN)NC(=O)[C@H](C(C)C)NC1=O [Compound 13] (X1-[Dab]T[Dap][Dab][Dab][dL]V[Dab][Dab]T; lactam 4-C) 0.25

* * *

- Tested on: Pseudomonas aeruginosa ATCC 27853
- Format: cell-based
- CONDITION_INFO: ATCC 27853
Where a SMILES comes first, the peptide text is derived from it. Bridges are numbered along the chain shown (N, C = ends). [ ]: non-standard residue; d: D form. The star is where a group is joined. Benzofuran(2-CO) = O=C(c1cc2ccccc2o1)*; X55 = O=C(c1ccc(-c2ccc(Cl)nc2)cc1)*; dNle = CCCC[C@@H](N)C(=O)O; X29 = O=C(c1cc(Cl)ccn1)*; Dab = NCC[C@H](N)C(=O)O; Abu = CC[C@H](N)C(=O)O; Dap = NC[C@H](N)C(=O)O
READOUT: Minimum inhibitory concentration (µg/mL)
# number only, unit µg/mL dropped from output

Recorded Minimum inhibitory concentration for CCCC[C@H]1NC(=O)[C@H](CCN)NC(=O)[C@@H](NC(=O)[C@H](CN)NC(=O)[C@@H](NC(=O)[C@H](CCN)NC(=O)c2cc(Cl)ccn2)[C@@H](C)O)CCNC(=O)[C@H]([C@@H](C)O)NC(=O)[C@H](CCN)NC(=O)[C@H](CCN)NC(=O)[C@H](CC)NC1=O [Compound 95] (X29-[Dab]T[Dap][Dab][Dab][dNle][Abu][Dab][Dab]T; lactam 4-C) , please? 0.25

Then this compound: CC[C@@H]1NC(=O)[C@@H](CC(C)C)NC(=O)[C@H](CCN)NC(=O)[C@@H](NC(=O)[C@H](CN)NC(=O)[C@@H](NC(=O)[C@H](CCN)NC(=O)c2cc3ccccc3o2)[C@@H](C)O)CCNC(=O)[C@H]([C@@H](C)O)NC(=O)[C@H](CCN)NC(=O)[C@H](CCN)NC1=O [Compound 92] ({Benzofuran(2-CO)}-[Dab]T[Dap][Dab][Dab][dL][Abu][Dab][Dab]T; lactam 4-C) 0.5

Then this compound: CC(C)C[C@H]1NC(=O)[C@H](CCN)NC(=O)[C@@H](NC(=O)[C@H](CN)NC(=O)[C@@H](NC(=O)[C@H](CCN)NC(=O)c2ccc(-c3ccc(Cl)nc3)cc2)[C@@H](C)O)CCNC(=O)[C@H]([C@@H](C)O)NC(=O)[C@H](CCN)NC(=O)[C@H](CCN)NC(=O)[C@H]([C@@H](C)O)NC1=O [Compound 16] (X55-[Dab]T[Dap][Dab][Dab][dL]T[Dab][Dab]T; lactam 4-C) 0.5

* * *

- Tested on: Pseudomonas aeruginosa ATCC 27853
- Assay type: cell-based
- CONDITION_INFO: ATCC 27853
Where a SMILES comes first, the peptide text is derived from it. Bridges are numbered along the chain shown (N, C = ends). [ ]: non-standard residue; d: D form. The star is where a group is joined. Isoxazole(3-CO,5-Ph) = O=C(c1cc(-c2ccccc2)on1)*; X27 = O=C(c1sc2ccccc2c1Cl)*; Dab = NCC[C@H](N)C(=O)O; Abu = CC[C@H](N)C(=O)O; Dap = NC[C@H](N)C(=O)O
READOUT: Minimum inhibitory concentration (mg/L)
# number only, unit mg/L dropped from output

Recorded Minimum inhibitory concentration for CC[C@@H]1NC(=O)[C@@H](CC(C)C)NC(=O)[C@H](CCN)NC(=O)[C@@H](NC(=O)[C@H](CN)NC(=O)[C@@H](NC(=O)[C@H](CCN)NC(=O)c2cc(-c3ccccc3)on2)[C@@H](C)O)CCNC(=O)[C@H]([C@@H](C)O)NC(=O)[C@H](CCN)NC(=O)[C@H](CCN)NC1=O [Compound 80] ({Isoxazole(3-CO,5-Ph)}-[Dab]T[Dap][Dab][Dab][dL][Abu][Dab][Dab]T; lactam 4-C) , please? 0.5

Then this molecule: CC(C)C[C@H]1NC(=O)[C@H](CCN)NC(=O)[C@@H](NC(=O)[C@H](CN)NC(=O)[C@@H](NC(=O)[C@H](CCN)NC(=O)c2sc3ccccc3c2Cl)[C@@H](C)O)CCNC(=O)[C@H]([C@@H](C)O)NC(=O)[C@H](CCN)NC(=O)[C@H](CCN)NC(=O)[C@H](C)NC1=O [Compound 69] (X27-[Dab]T[Dap][Dab][Dab][dL]A[Dab][Dab]T; lactam 4-C) 0.5
